Target: SARS-CoV-2 Spike RBD-Fc (SARS-CoV-2)
Test: ELISA, RBD-Fc captured via anti-rabbit IgG, concentration-dependent binding
Entries and their measured EC50 follow.
Answer in ng/mL, number only, no unit symbol.

Use these answered entries as a reference point.
{"columns": ["BINDER", "EC50 (ng/mL)"],
 "data": [
  ["HL CV07-250 (antibody, V domains shown) VH: QVQLVQSEAEVKEPGASVEVSCKASGYNFTNFAISWVRQAPGQGLEWMGWISGYNGDTNSAQKFLGRVTMTTDTSTTTAYMELRSLRSDDTAVYYCAGSDNYGFPYNGMDVWGQGTTVTVSS VL: QSALTQPPSASGSPGQSVTISCTGTSSDLGAYHFVTWYQHYPGKAPKVMIYGVRKRPSGVPDRFSGSKSGNTASLTVSGLQDEDEADYYCSSYAGNNDFVFGGGTKLTVLS", 8.7],
  ["HL CV07-262 (antibody, V domains shown) VH: QVQLVQSGAEVKKPGASVKVSCKASGYTFTGYYMHWVRQAPGQGLEWMGWINPNSGGTNYAQTFQGRVTMTRDTSITTTYMELSRLRSDDTAVYYCARVGWYDFGTPGDYYYYYGMDVWGQGTTVTVSS VL: QSALTQPASVSGSPGQSITISCTGTSSDVGSYNLVSWYQQHPGKAPKLMIYEGSKRPSGVSNRFSGSKSGNTASLTISGLQAEDEADYFCCSYAGTSTFVFGTGTKVTVLG", 12.1]
]}

--- query ---
Exam item: Identify EC50 associated with the binder HK CVX1-126 (antibody, V domains shown) VH: EVQLVESGGGLVQPGGSLRLSCAASGLTVSSNYMSWVRQAPGKGLEWVSVIYSGGSTYYADSVKGRFTISRHNSKNTLYLQMNSVRAEDTAVYYCARDLSEGGMDVWGQGTTVTVSS VL: DIQMTQSPSSVSASVGDRVTITCRASQGISSWLAWYQQKPGKAPKLLIYAASTLQSGVPSRFSGSGSGTDFTLTISSLQPEDFATYYCQQANGFPPLFGGGTKVEIKR
Marked response: 5.5
